Molecular target: Induced myeloid leukemia cell differentiation protein Mcl-1 (Homo sapiens)
Sequence (Q07820 whole entry): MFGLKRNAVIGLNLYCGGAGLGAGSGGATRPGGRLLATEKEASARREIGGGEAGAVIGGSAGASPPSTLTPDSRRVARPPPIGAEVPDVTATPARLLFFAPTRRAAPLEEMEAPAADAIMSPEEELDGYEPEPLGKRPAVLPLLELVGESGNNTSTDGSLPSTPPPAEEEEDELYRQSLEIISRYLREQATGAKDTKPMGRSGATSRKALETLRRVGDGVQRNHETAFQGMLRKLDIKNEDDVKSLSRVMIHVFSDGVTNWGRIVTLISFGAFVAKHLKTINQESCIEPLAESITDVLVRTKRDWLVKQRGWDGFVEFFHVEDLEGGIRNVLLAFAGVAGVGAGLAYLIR
Type: functional
The source made the active and inactive calls.
metric: IC50

[[record]]
chemical_string = "Oc1c(Cl)cc(Cl)c(Cl)c1Cc1c(O)c(Cl)cc(Cl)c1Cl"
metric = "IC50"
recorded_value = "14.8 µM (active)"

[[record]]
chemical_string = "O=C(Nc1nccs1)c1cc(-c2ccco2)nc2ccccc12"
metric = "IC50"
recorded_value = "2.5 µM (active)"

[[record]]
chemical_string = "O=c1c2ccccc2nc(-c2ccco2)n1-c1cccnc1"
metric = "IC50"
recorded_value = "< 0.4 µM (not active)"

[[record]]
chemical_string = "NC(=O)c1c(Nc2nc3c(F)cccc3s2)sc2c1CCCC2"
metric = "IC50"
recorded_value = "2.76 µM (active)"

[[record]]
chemical_string = "N=c1c(C(=O)NCc2ccc3c(c2)OCO3)cc2c(=O)n3ccccc3nc2n1Cc1cccnc1"
metric = "IC50"
recorded_value = "4.3 µM (active)"

[[record]]
chemical_string = "Cc1c(C(=O)N/N=C/c2ccc(-c3ccccc3[N+](=O)[O-])o2)sc(N)c1C#N"
metric = "IC50"
recorded_value = "3.78 µM (active)"

[[record]]
chemical_string = "COc1ccc(NC(=O)c2cc(-c3ccco3)nc3ccccc23)cc1S(=O)(=O)N1CCOCC1"
metric = "IC50"
recorded_value = "2.29 µM (active)"

[[record]]
chemical_string = "O=C(Nc1cccc(S(=O)(=O)NC2=NCCC2)c1)c1cc(-c2ccco2)nc2ccccc12"
metric = "IC50"
recorded_value = "1.09 µM (active)"


These measurements were taken from ChEMBL document CHEMBL1201862.
